# assay target: BRD4 Bromo Domain 2 [BRD4(2)] (Homo sapiens)
# Construct: N-terminally His6-tagged BRD4(2) (amino acids 357-445)
# measurement notes: BRD4(2)/acetylated peptide H4 binding assay (TR-FRET)
# measurement context: inhibition of interaction between His6-tagged BRD4(2) (amino acids 357-445) and acetylated histone H4 peptide
I'd be grateful if you could share measured pIC50 for these entries.
Please treat pIC50 as minus the base-10 logarithm of the molar concentration.

Task: Suppose we examine the molecule COc1ccc(CN2c3cc(Nc4ccc(C(=O)N5CCOCC5)cc4)ccc3N(C)C(=O)[C@H]2C)cc1 [Example 18] ; what pIC50 value has been reported?
Result: 6.95

Task: Quick one: COc1ccc(CN2c3cc(Nc4ccc(C(=O)N5CC6(COC6)C5)cc4)ccc3N(C)C(=O)[C@H]2C)cc1 [Example 20]
Result: 7.37

Task: Now this one: C[C@@H]1C(=O)N(C)c2ccc(Nc3ccc(C(=O)NCCN4CCN(C)CC4)cc3)cc2N1C1CCOCC1 [Example 30]
Result: 6.45

Task: Subsequent entry: COc1ccc(CN2c3cc(Nc4ccc(C(=O)NC5CCN(C)CC5)cc4)ccc3N(C)C(=O)[C@H]2C)cc1 [Example 17]
Result: 7.08

Task: Queued: C[C@@H]1C(=O)N(C)c2ccc(Nc3ccc(C(=O)N(C)C)cc3)cc2N1C1CCCC1 [Example 8]
Result: 6.77

Task: Param item: C[C@@H]1C(=O)N(C)c2ccc(Nc3ccc(C(=O)NC4CCN(C)CC4)cc3)cc2N1Cc1ccccc1 [Example 11]
Result: 6.97

Task: Now this one: C[C@@H]1C(=O)N(C)c2ccc(Nc3ccc(C(=O)NCC4COC4)cc3)cc2N1Cc1ccccc1 [Example 9]
Result: 7.21

Task: Another: C[C@@H]1C(=O)N(C)c2ccc(Nc3ccc(S(=O)(=O)N4CCOCC4)cc3)cc2N1Cc1ccccc1 [Example 13]
Result: 7.29

Task: Proceed to C[C@@H]1C(=O)N(C)c2ccc(Nc3ccc(S(=O)(=O)N4CCOCC4)cc3)cc2N1C1CCOCC1 [Example 47]
Result: 6.87

Task: Queued: C[C@@H]1C(=O)N(C)c2ccc(Nc3ccc(C(=O)N4CC5(CCS5(=O)=O)C4)cc3)cc2N1C1CCOCC1 [Example 31]
Result: 6.90

Task: Another: C[C@@H]1C(=O)N(C)c2ccc(Nc3ccc(C(=O)NC4CCN(C)CC4)cc3)cc2N1Cc1c(F)cccc1F (stereo in doubt) [Example 39]
Result: 6.58

Task: Also, C[C@@H]1C(=O)N(C)c2ccc(Nc3ccc(S(=O)(=O)N4CCN(C)CC4)cc3)cc2N1C1CCOCC1 [Example 48] please.
Result: 6.95

Task: Please give the result for CC(=O)N1CCC(NC(=O)c2ccc(Nc3ccc4c(c3)N(C3CCOCC3)[C@H](C)C(=O)N4C)cc2)CC1 [Example 32] too.
Result: 6.32

Task: Param item: C[C@@H]1C(=O)N(C)c2ccc(Nc3ccc(C(=O)N4CCOCC4)cc3)cc2N1C1CCCC1 [Example 6]
Result: 7.10

Task: Subsequent entry: C[C@@H]1C(=O)N(C)c2ccc(Nc3ccc(C(=O)NC4CN(C)C4)cc3)cc2N1C1CCOCC1 [Example 34]
Result: 6.62
